Cited source for all entries: paper PMC6792352

# EXPERIMENT_DESCRIPTION: in vitro
# TEST_CONDITIONS: rat, gh3-tre-luc cells, AC50 (uM) modified / 1000
Where a name gives a salt, the structure may show the parent alone.
REPORTED_METRIC: CC50 at 24 h

In [3]: df
Out[3]:
                                   compound  recorded_value
0       CCCCCCCCCC(C)C=O (stereo not drawn)         > 90 µM
1                  O=C(O)CCc1nc2ccccc2[nH]1         > 50 µM
2                                  C1CNCCN1         > 50 µM
3  CCCOC(C(=O)OC1CCN(C)CC1)(c1ccccc1)c1ccccc1 [Propiverine hydrochloride]         14.7 µM
4                   Nc1cc(Cl)cc(C(=O)O)c1Cl         > 90 µM

Now for the compound whose CC50 at 24 h we want.
Record CCCCCCCCc1ccc(S(=O)(=O)O)cc1 [Sodium 4-octylbenzenesulfonate] . Reported CC50 at 24 h: > 90 µM

---

# EXPERIMENT_DESCRIPTION: in vitro
# TEST_CONDITIONS: rat, gh3-tre-luc cells, AC50 (uM) modified / 1000, Tox21_110001=Tox21_200572; viability, 1 nM T3 present, 24 h
REPORTED_METRIC: CC50 at 24 h

Record O=[N+]([O-])c1ccc(CCl)cc1 [4-Nitrobenzyl chloride] . Reported CC50 at 24 h: > 90 µM

---

# EXPERIMENT_DESCRIPTION: in vitro
# TEST_CONDITIONS: rat, gh3-tre-luc cells, AC50 (uM) modified / 1000, Tox21_110001=Tox21_112832; viability, 1 nM T3 present, 24 h
REPORTED_METRIC: CC50 at 24 h

Record CCC(=O)OC1(c2ccccc2)CCN(C)CC1 . Reported CC50 at 24 h: > 100 µM

---

REPORTED_METRIC: AC50

Record CSCC[C@H](NC(=O)[C@H](Cc1ccc(OS(=O)(=O)O)cc1)NC(=O)[C@@H](N)CC(=O)O)C(=O)NCC(=O)N[C@@H](Cc1c[nH]c2ccccc12)C(=O)N[C@@H](CCSC)C(=O)N[C@@H](CC(=O)O)C(=O)N[C@@H](Cc1ccccc1)C(N)=O [Sincalide, reference compound] . Reported AC50: > 92 µM

---

# EXPERIMENT_DESCRIPTION: in vitro
# TEST_CONDITIONS: rat, gh3-tre-luc cells, AC50 (uM) modified / 1000, Tox21_110001=Tox21_301908; viability, 1 nM T3 present, 24 h
REPORTED_METRIC: CC50 at 24 h

Record COP(=S)(OC)Oc1ccc([N+](=O)[O-])cc1Cl . Reported CC50 at 24 h: > 90 µM

---

# Tested on: GH3-TRE-Luc cell line
# TEST_CONDITIONS: read-out: AC50 (uM) modified / 1000; Tox21_110001=Tox21_303376; viability, 1 nM T3 present, 24 h
REPORTED_METRIC: CC50 (µM)
Give the number; µM is assumed, so skip it.

Record Oc1ccc(/C=C/c2cc(O)cc(O)c2)cc1 . Reported CC50: 36.1

---

# EXPERIMENT_DESCRIPTION: GH3-TRE-Via cell viability, CellTiter-Fluor (TOX21_TR_LUC_GH3_Antagonist_viability, aeid 805)
# TEST_CONDITIONS: rat
Items are presented alongside their recorded AC50 at 24 h.
Give the number; µM is assumed, so skip it.

>>> print(df.to_string())
                                   molecule  recorded_value
0  O=C(O)Cc1cc(I)c(Oc2cc(I)c(O)c(I)c2)c(I)c1            51.3
1  C=C1CC[C@@H]2[C@](C)(CO)[C@H](O)CC[C@@]2(C)[C@@H]1C/C=C1/C(=O)OC[C@H]1O [Andrographolide]            19.4
2  CC(C)(C)CC(C)(C)c1ccc(O)c(Cc2ccc(Cl)cc2Cl)c1 [Clofoctol, reference compound]            8.04

Now for the molecule whose AC50 at 24 h we want.
Record C[C@]12CC[C@H]3C(=CCc4cc(O)ccc43)[C@@H]1CCC2=O [Equilin, reference compound] . Reported AC50 at 24 h: 85.1

---

# EXPERIMENT_DESCRIPTION: in vitro
# TEST_CONDITIONS: rat, gh3-tre-luc cells, AC50 (uM) modified / 1000, Tox21_110001=Tox21_301078; viability, 1 nM T3 present, 24 h
REPORTED_METRIC: CC50 at 24 h

Record COP(=O)(OC)O/C(C)=C/C(=O)N(C)C . Reported CC50 at 24 h: > 90 µM

---

# EXPERIMENT_DESCRIPTION: in vitro
# TEST_CONDITIONS: rat, gh3-tre-luc cells, AC50 (uM) modified / 1000
Structures can show the parent of a compound that is named as a salt.
REPORTED_METRIC: CC50 at 24 h

                                   compound  reported_metric  recorded_value
0  CC(CN1c2ccccc2Sc2cccnc21)N(C)C (stereo not drawn) [Isothipendyl hydrochloride]     CC50 at 24 h           28 µM

Record c1ccc(CN(CC2=NCCN2)c2ccccc2)cc1 [Antazoline hydrochloride] . Reported CC50 at 24 h: 21.1 µM

Record CC(C)NC(=O)c1ccccc1N [2-Amino-N-(1-methylethyl)benzamide] . Reported CC50 at 24 h: > 90 µM

Record C=C(C)C(=O)OCCOCCOCCOCCOC(=O)C(=C)C [Tetraethyleneglycol dimethacrylate] . Reported CC50 at 24 h: > 90 µM

Record O=C(O)c1ccccc1Cl [2-Chlorobenzoic acid] . Reported CC50 at 24 h: > 90 µM

Record Cc1ccc(C=O)s1 [5-Methyl-2-thiophenecarboxaldehyde] . Reported CC50 at 24 h: > 90 µM

Record CN(C)CCC=C1c2ccccc2C(C)(C)c2ccccc21 [Melitracen hydrochloride] . Reported CC50 at 24 h: 19.6 µM

Record Cc1cccc(C)c1O [2,6-Dimethylphenol] . Reported CC50 at 24 h: > 90 µM

Record c1ccc(C[n+]2cccc3ccccc32)cc1 [1-Benzylquinolinium chloride] . Reported CC50 at 24 h: > 90 µM

---

# EXPERIMENT_DESCRIPTION: in vitro
# TEST_CONDITIONS: rat, gh3-tre-luc cells, AC50 (uM) modified / 1000, Tox21_110001=Tox21_200517; viability, 1 nM T3 present, 24 h
Structures can show the parent of a compound that is named as a salt.
REPORTED_METRIC: CC50 at 24 h

Record Cc1ccc(N)cc1 [4-Methylaniline hydrochloride] . Reported CC50 at 24 h: > 90 µM

---

# EXPERIMENT_DESCRIPTION: in vitro
# TEST_CONDITIONS: rat, gh3-tre-luc cells, AC50 (uM) modified / 1000
Structures can show the parent of a compound that is named as a salt.
Items are presented alongside their recorded CC50 at 24 h.

Reference set, count: 10
MOLECULE	CC50 at 24 h
CC(C(=O)O)c1ccc2c(c1)[nH]c1ccc(Cl)cc12 (stereo not shown) [Carprofen]	> 50 µM
COc1c2ccoc2cc2oc(=O)ccc12 [5-Methoxypsoralen]	> 90 µM
CCC(=O)Oc1ccc2c(c1)CC[C@@H]1[C@@H]2CC[C@]2(C)[C@@H](OC(=O)CC)CC[C@@H]12 [Estradiol dipropionate]	> 50 µM
CCc1nn(C)c(C(=O)NCc2ccc(C(C)(C)C)cc2)c1Cl [Tebufenpyrad]	53.4 µM
CCN(CC)CCOc1ccc(-c2nc3cc(Cl)ccc3s2)cc1 [Halethazole hydrochloride]	8.14 µM
CC(C)=CCC/C(C)=C/CC/C(C)=C/CC/C(C)=C/CC1=C(C)C(=O)c2ccccc2C1=O [Menatetrenone]	> 50 µM
Cc1c(-c2ccc(O)cc2)n(Cc2ccc(OCCN3CCCCCC3)cc2)c2ccc(O)cc12 [Bazedoxifene acetate]	8.31 µM
CSc1cnccn1 [Pyrazinyl methyl sulfide]	> 90 µM
CN(C)[C@@H]1C(O)=C(C(=O)NCN2CCCC2)C(=O)[C@@]2(O)C(O)=C3C(=O)c4c(O)cccc4[C@@](C)(O)[C@H]3C[C@@H]12 [Rolitetracycline]	> 20 µM
Cc1ccc(C)c(O)c1 [2,5-Dimethylphenol]	> 90 µM

Now for the molecule whose CC50 at 24 h we want.
Record Cc1ccc2c(Br)cc(Br)c(O)c2n1 [Broquinaldol] . Reported CC50 at 24 h: 23 µM
